# Test system: E. coli MG1655 (DE3), pCDF-duet (strain M)
# ASSAY SUMMARY: Tolerance test, growth (OD550) of reference strain
# Format: cell-based
# PARTICULARS: MOPS medium with 200 mM succinic acid, 10 mM triacetic acid lactone, 300 mM NaCl or 480 mM sucrose
Hi there, I'd appreciate the recorded biomass (OD550) for every entry that follows.
Lab note: jot the number down without any unit.

Hi! What's the reported biomass (OD550) for "[Cl-].[Na+]" on E. coli MG1655 (DE3), pCDF-duet (strain M)?
0.59

Subsequent entry: "Cc1cc(O)cc(=O)o1"
0.62

Again, but for "O=C(O)CCC(=O)O"
0.30

Item: "OC[C@H]1O[C@@](CO)(O[C@H]2O[C@H](CO)[C@@H](O)[C@H](O)[C@H]2O)[C@@H](O)[C@@H]1O"
0.77

This collection of values is drawn from patent US20250066826A1.
